Origin of measurements: patent US20240299557A1

# measurement_target: HBV P protein (DNA polymerase) (Hepatitis B virus genotype D subtype ayw)
# Construct: expressed in transfected cells; host or cells: Huh7-LgBiT cells transduced with pLVX-HBP-Puro lentivirus (Huh7-HBP)
# Sequence (P03156 whole entry): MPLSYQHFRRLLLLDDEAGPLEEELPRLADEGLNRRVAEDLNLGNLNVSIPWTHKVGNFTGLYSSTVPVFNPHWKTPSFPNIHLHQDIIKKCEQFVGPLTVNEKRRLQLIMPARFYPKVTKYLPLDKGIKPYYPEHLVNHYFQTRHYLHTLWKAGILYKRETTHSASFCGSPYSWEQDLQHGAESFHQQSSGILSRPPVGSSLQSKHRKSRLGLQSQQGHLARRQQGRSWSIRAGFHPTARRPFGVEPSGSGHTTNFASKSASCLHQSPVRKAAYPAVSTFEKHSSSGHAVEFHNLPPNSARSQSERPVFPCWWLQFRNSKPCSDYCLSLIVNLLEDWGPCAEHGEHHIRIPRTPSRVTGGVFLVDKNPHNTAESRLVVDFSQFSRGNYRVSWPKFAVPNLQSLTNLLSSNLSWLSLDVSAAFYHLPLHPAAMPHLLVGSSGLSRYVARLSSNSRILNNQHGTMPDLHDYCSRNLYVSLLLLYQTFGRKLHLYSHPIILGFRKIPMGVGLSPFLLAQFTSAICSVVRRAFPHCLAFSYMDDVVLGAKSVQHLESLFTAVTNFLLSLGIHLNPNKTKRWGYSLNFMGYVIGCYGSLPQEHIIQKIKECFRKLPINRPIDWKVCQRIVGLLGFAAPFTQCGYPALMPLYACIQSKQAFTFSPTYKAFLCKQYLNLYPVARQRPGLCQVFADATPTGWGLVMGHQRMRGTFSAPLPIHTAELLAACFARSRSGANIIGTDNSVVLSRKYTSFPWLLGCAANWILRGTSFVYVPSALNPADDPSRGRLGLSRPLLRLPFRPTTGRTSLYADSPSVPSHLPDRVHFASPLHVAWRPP
# test_method_notes: Degradation of HBV P protein (DNA polymerase) in Huh7-HBP cell line (Nano-Glo HiBiT/LgBiT luminescence)
# Type: cell-based
# condition_summary: 10000 nM, read-out: Degradation activity of DNA polymerase at different concentrations of compounds
recorded_endpoint: inhibition at 10 µM

Quick note, inhibition at 10 µM for C=C1[C@H](CNC(=O)CN2CCN(CCCC(=O)N[C@H](C(=O)N3C[C@H](O)C[C@H]3C(=O)NCc3ccc(-c4scnc4C)cc3)C(C)(C)C)CC2)[C@H](O)C[C@@H]1n1cnc2c(=O)[nH]c(N)nc21 [Compound VII] landed at 30 to 70%

Quick note, inhibition at 10 µM for C=C1[C@H](CO)[C@H](O)C[C@@H]1n1cnc2c(OCCCCCCCCCC(=O)N[C@H](C(=O)N3C[C@H](O)C[C@H]3C(=O)NCc3ccc(-c4scnc4C)cc3)C(C)(C)C)nc(N)nc21 [Compound I] landed at > 70%

Quick note, inhibition at 10 µM for C=C1[C@H](CO)[C@H](O)C[C@@H]1n1cnc2c(OCCN3CCN(CCCC(=O)N[C@H](C(=O)N4C[C@H](O)C[C@H]4C(=O)NCc4ccc(-c5scnc5C)cc4)C(C)(C)C)CC3)nc(N)nc21 [II] landed at 30 to 70%

Quick note, inhibition at 10 µM for C=C1[C@H](CO)[C@H](O)C[C@@H]1n1cnc2c(OCCN3CCC(CCCC(=O)N[C@H](C(=O)N4C[C@H](O)C[C@H]4C(=O)NCc4ccc(-c5scnc5C)cc4)C(C)(C)C)CC3)nc(N)nc21 [III] landed at > 70%

Quick note, inhibition at 10 µM for C=C1[C@H](CNC(=O)CN2CCC(CCCC(=O)N[C@H](C(=O)N3C[C@H](O)C[C@H]3C(=O)NCc3ccc(-c4scnc4C)cc3)C(C)(C)C)CC2)[C@H](O)C[C@@H]1n1cnc2c(=O)[nH]c(N)nc21 [VIII] landed at > 70%

Quick note, inhibition at 10 µM for C=C1[C@H](CO)[C@H](O)C[C@@H]1n1cnc2c(OCCOCCOCCCC(=O)N[C@H](C(=O)N3C[C@H](O)C[C@H]3C(=O)NCc3ccc(-c4scnc4C)cc3)C(C)(C)C)nc(N)nc21 [Compound V] landed at 30 to 70%

Quick note, inhibition at 10 µM for C=C1[C@H](CNC(=O)CCCCCCCCC(=O)N[C@H](C(=O)N2C[C@H](O)C[C@H]2C(=O)NCc2ccc(-c3scnc3C)cc2)C(C)(C)C)[C@H](O)C[C@@H]1n1cnc2c(=O)[nH]c(N)nc21 [Compound VI] landed at > 70%
